A collection of compounds and their measured IC50
# tgt: Histone deacetylase
# Type: protein assay, Homo sapiens
# testSettings: hela
propertyName: IC50 (nM)

chemicalstring=Cc1ccc(OCCCN(Cc2ccc(-c3ccccc3)cc2)Cc2ccc(/C=C/C(=O)NO)o2)cc1 qualifieroperator== result=1660
chemicalstring=O=C(/C=C/c1ccc(CN(CCO)Cc2ccc(-c3ccccc3)cc2)o1)NO qualifieroperator== result=89
chemicalstring=CCCN(CCc1ccc2c(c1)OCO2)Cc1ccc(/C=C/C(=O)NO)o1 qualifieroperator== result=1590
chemicalstring=CCCCCCN(Cc1ccccc1)Cc1ccc(/C=C/C(=O)NO)o1 qualifieroperator== result=2650
chemicalstring=Cc1ccc(OCCN(CCc2ccc3c(c2)OCO3)Cc2ccc(/C=C/C(=O)NO)o2)cc1 qualifieroperator== result=840
chemicalstring=CCCCN(Cc1ccccc1)Cc1ccc(/C=C/C(=O)NO)o1 qualifieroperator== result=540
chemicalstring=O=C(/C=C/c1ccc(CN(CCc2ccc3c(c2)OCO3)Cc2ccccc2)o1)NO qualifieroperator== result=2280
chemicalstring=CC(C)N(Cc1ccccc1)Cc1ccc(/C=C/C(=O)NO)o1 qualifieroperator== result=180
chemicalstring=CC(C)N(Cc1ccc(-c2ccccc2)cc1)Cc1ccc(/C=C/C(=O)NO)o1 qualifieroperator== result=1610
chemicalstring=CCCCCCCCN(Cc1ccccc1)Cc1ccc(/C=C/C(=O)NO)o1 qualifieroperator== result=2550
chemicalstring=O=C(/C=C/c1ccc(CN(CCCOc2ccccc2)Cc2ccc(-c3ccccc3)cc2)o1)NO qualifieroperator=> result=2070
chemicalstring=CCCN(Cc1ccccc1)Cc1ccc(/C=C/C(=O)NO)o1 qualifieroperator== result=170
chemicalstring=O=C(/C=C/c1ccc(CN(Cc2ccccc2)Cc2ccc(-c3ccccc3)cc2)o1)NO qualifieroperator=> result=2550
chemicalstring=CCN(Cc1ccc(-c2ccccc2)cc1)Cc1ccc(/C=C/C(=O)NO)o1 qualifieroperator== result=1250
chemicalstring=Cc1ccc(OCCN(Cc2ccc(-c3ccccc3)cc2)Cc2ccc(/C=C/C(=O)NO)o2)cc1 qualifieroperator== result=1710
chemicalstring=O=C(/C=C/c1ccc(CN(CCCCOc2ccccc2)Cc2ccccc2)o1)NO qualifieroperator== result=2120

###

# tgt: Histone deacetylase 1 (Homo sapiens)
# Sequence (Q13547 whole entry, the tested form may be a part): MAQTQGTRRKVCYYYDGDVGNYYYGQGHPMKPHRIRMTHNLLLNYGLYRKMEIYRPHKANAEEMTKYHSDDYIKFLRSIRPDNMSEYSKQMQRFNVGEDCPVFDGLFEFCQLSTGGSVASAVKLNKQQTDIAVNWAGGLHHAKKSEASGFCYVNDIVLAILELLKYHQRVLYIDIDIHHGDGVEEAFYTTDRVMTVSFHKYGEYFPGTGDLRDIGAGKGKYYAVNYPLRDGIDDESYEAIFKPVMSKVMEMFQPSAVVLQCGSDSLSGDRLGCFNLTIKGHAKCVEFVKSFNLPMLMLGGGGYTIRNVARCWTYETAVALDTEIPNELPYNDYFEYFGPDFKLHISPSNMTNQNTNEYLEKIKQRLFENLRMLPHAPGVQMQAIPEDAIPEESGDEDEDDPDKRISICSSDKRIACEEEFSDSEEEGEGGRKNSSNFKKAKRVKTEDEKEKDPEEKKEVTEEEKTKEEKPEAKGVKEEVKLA
# methodNotes: Inhibition of human recombinant HDAC1 using p53 residues 379-382 (RHKKAc) as substrate
pIC50: −log10 of the molar value.
A collection of compounds and their measured pIC50
propertyName: pIC50

chemicalstring=Cc1ccc(OCCN(Cc2ccccc2)Cc2ccc(/C=C/C(=O)NO)o2)cc1 tgt="Histone deacetylase 1 (Homo sapiens)" result=4.50
chemicalstring=Cc1ccc(OCCN(Cc2ccc(-c3ccccc3)cc2)Cc2ccc(/C=C/C(=O)NO)o2)cc1 tgt="Histone deacetylase 1 (Homo sapiens)" result=5.39
chemicalstring=O=C(/C=C/c1ccc(CN(CCCOc2ccccc2)Cc2ccccc2)o1)NO tgt="Histone deacetylase 1 (Homo sapiens)" result=5.19
chemicalstring=O=C(/C=C/c1ccc(CN(CCOc2ccccc2)Cc2ccccc2)o1)NO tgt="Histone deacetylase 1 (Homo sapiens)" result=4.69
chemicalstring=CCN(Cc1ccc(-c2ccccc2)cc1)Cc1ccc(/C=C/C(=O)NO)o1 tgt="Histone deacetylase 1 (Homo sapiens)" result=5.47
chemicalstring=Cc1ccc(OCCCN(Cc2ccccc2)Cc2ccc(/C=C/C(=O)NO)o2)cc1 tgt="Histone deacetylase 1 (Homo sapiens)" result=5.02
chemicalstring=CC(C)N(Cc1ccccc1)Cc1ccc(/C=C/C(=O)NO)o1 tgt="Histone deacetylase 1 (Homo sapiens)" result=5.63
chemicalstring=CC(C)CN(Cc1ccccc1)Cc1ccc(/C=C/C(=O)NO)o1 tgt="Histone deacetylase 1 (Homo sapiens)" result=4.69
chemicalstring=Cc1ccc(OCCCCN(Cc2ccccc2)Cc2ccc(/C=C/C(=O)NO)o2)cc1 tgt="Histone deacetylase 1 (Homo sapiens)" result=5.33
chemicalstring=CCCN(Cc1ccccc1)Cc1ccc(/C=C/C(=O)NO)o1 tgt="Histone deacetylase 1 (Homo sapiens)" result=5.31
chemicalstring=O=C(/C=C/c1ccc(CN(CCO)Cc2ccccc2)o1)NO tgt="Histone deacetylase 1 (Homo sapiens)" result=4.90
chemicalstring=CCN(Cc1ccccc1)Cc1ccc(/C=C/C(=O)NO)o1 tgt="Histone deacetylase 1 (Homo sapiens)" result=5.26
chemicalstring=CCCCN(Cc1ccccc1)Cc1ccc(/C=C/C(=O)NO)o1 tgt="Histone deacetylase 1 (Homo sapiens)" result=5.33
chemicalstring=CCN(CCc1ccc2c(c1)OCO2)Cc1ccc(/C=C/C(=O)NO)o1 tgt="Histone deacetylase 1 (Homo sapiens)" result=5.10
chemicalstring=Cc1ccc(OCCN(CCc2ccc3c(c2)OCO3)Cc2ccc(/C=C/C(=O)NO)o2)cc1 tgt="Histone deacetylase 1 (Homo sapiens)" result=4.75

###

# tgt: Protein deacetylase HDAC6 (Homo sapiens)
# Sequence (Q9UBN7 whole entry): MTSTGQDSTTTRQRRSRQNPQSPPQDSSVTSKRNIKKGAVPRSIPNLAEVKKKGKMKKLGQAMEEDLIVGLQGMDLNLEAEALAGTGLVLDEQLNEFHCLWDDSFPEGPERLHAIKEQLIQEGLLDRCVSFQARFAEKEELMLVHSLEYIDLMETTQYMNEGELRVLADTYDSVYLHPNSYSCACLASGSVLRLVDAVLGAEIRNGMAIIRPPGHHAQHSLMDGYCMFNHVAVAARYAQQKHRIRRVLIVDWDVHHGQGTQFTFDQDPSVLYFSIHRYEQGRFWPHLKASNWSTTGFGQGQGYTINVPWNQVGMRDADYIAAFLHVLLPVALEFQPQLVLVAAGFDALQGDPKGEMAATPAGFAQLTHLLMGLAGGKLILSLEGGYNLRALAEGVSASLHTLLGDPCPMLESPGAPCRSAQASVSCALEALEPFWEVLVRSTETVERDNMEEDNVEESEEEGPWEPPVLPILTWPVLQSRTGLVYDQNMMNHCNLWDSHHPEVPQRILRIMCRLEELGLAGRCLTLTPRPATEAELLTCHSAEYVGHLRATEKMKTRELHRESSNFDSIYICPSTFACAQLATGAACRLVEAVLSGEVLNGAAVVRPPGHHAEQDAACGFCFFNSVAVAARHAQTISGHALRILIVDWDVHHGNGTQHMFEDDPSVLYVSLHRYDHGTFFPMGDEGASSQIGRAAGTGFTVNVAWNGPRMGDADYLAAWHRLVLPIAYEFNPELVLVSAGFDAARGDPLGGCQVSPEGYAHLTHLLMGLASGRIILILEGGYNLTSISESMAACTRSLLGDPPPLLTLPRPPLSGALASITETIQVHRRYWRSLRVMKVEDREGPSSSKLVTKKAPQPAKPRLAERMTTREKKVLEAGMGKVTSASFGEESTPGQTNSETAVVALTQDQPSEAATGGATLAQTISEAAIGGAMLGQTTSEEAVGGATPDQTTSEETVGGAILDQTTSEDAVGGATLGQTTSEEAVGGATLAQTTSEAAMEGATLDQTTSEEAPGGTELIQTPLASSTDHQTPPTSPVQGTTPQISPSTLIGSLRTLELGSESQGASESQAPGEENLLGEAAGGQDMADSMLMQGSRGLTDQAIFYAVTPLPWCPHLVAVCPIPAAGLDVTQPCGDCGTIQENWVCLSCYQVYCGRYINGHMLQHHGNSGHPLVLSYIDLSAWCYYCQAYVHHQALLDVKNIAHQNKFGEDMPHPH
propertyName: IC50 (nM)

chemicalstring=Cc1ccc(OCCCN(Cc2ccccc2)Cc2ccc(/C=C/C(=O)NO)o2)cc1 tgt="Protein deacetylase HDAC6 (Homo sapiens)" propertyname=IC50 unitsofmeasure=nM result=930
chemicalstring=Cc1ccc(OCCN(CCc2ccc3c(c2)OCO3)Cc2ccc(/C=C/C(=O)NO)o2)cc1 tgt="Protein deacetylase HDAC6 (Homo sapiens)" propertyname=IC50 unitsofmeasure=nM result=4650
chemicalstring=CC(C)CN(Cc1ccccc1)Cc1ccc(/C=C/C(=O)NO)o1 tgt="Protein deacetylase HDAC6 (Homo sapiens)" propertyname=IC50 unitsofmeasure=nM result=1100
chemicalstring=CC(C)N(Cc1ccccc1)Cc1ccc(/C=C/C(=O)NO)o1 tgt="Protein deacetylase HDAC6 (Homo sapiens)" propertyname=IC50 unitsofmeasure=nM result=340
chemicalstring=Cc1ccc(OCCN(Cc2ccccc2)Cc2ccc(/C=C/C(=O)NO)o2)cc1 tgt="Protein deacetylase HDAC6 (Homo sapiens)" propertyname=IC50 unitsofmeasure=nM result=3130
chemicalstring=O=C(/C=C/c1ccc(CN(CCO)Cc2ccccc2)o1)NO tgt="Protein deacetylase HDAC6 (Homo sapiens)" propertyname=IC50 unitsofmeasure=nM result=430
chemicalstring=CCN(Cc1ccccc1)Cc1ccc(/C=C/C(=O)NO)o1 tgt="Protein deacetylase HDAC6 (Homo sapiens)" propertyname=IC50 unitsofmeasure=nM result=250

###

# Species: Homo sapiens
# methodNotes: Selectivity ratio of IC50 for human recombinant HDAC4 to human recombinant HDAC6
# strict inequality: Ratio IC50 < 20 yields yes, everything else yields no

chemicalstring=CCCN(Cc1ccccc1)Cc1ccc(/C=C/C(=O)NO)o1 cat=no
chemicalstring=Cc1ccc(OCCCN(Cc2ccccc2)Cc2ccc(/C=C/C(=O)NO)o2)cc1 cat=yes
chemicalstring=Cc1ccc(OCCCCN(Cc2ccccc2)Cc2ccc(/C=C/C(=O)NO)o2)cc1 cat=no
chemicalstring=O=C(/C=C/c1ccc(CN(CCO)Cc2ccccc2)o1)NO cat=no
chemicalstring=O=C(/C=C/c1ccc(CN(CCOc2ccccc2)Cc2ccccc2)o1)NO cat=no

Cited source: ChEMBL document CHEMBL2413039
